Test system: HeLa Kyoto
Assay: solubility change mitosis vs G1/S (difference of NP-40 vs SDS log2 ratios) (log2 ratio difference); higher = more soluble in mitosis
Property: solubility change mitosis (log2)
Answer with a number only.

Solved cases (2 shown):
MVSVINTVDTSHEDMIHDAQMDYYGTRLATCSSDRSVKIFDVRNGGQILIADLRGHEGPVWQVAWAHPMYGNILASCSYDRKVIIWREENGTWEKSHEHAGHDSSVNSVCWAPHDYGLILACGSSDGAISLLTYTGEGQWEVKKINNAHTIGCNAVSWAPAVVPGSLIDHPSGQKPNYIKRFASGGCDNLIKLWKEEEDGQWKEEQKLEAHSDWVRDVAWAPSIGLPTSTIASCSQDGRVFIWTCDDASSNTWSPKLLHKFNDVVWHVSWSITANILAVSGGDNKVTLWKESVDGQWVCISDVNKGQGSVSASVTEGQQNEQ [SEC13] : -0.09
MERPDKAALNALQPPEFRNESSLASTLKTLLFFTALMITVPIGLYFTTKSYIFEGALGMSNRDSYFYAAIVAVVAVHVVLALFVYVAWNEGSRQWREGKQD [VMA21] : -0.124

Please find the next sequence below.
Record request: solubility change mitosis (log2) value, item MTDAAVSFAKDFLAGGVAAAISKTAVAPIERVKLLLQVQHASKQITADKQYKGIIDCVVRIPKEQGVLSFWRGNLANVIRYFPTQALNFAFKDKYKQIFLGGVDKRTQFWLYFAGNLASGGAAGATSLCFVYPLDFARTRLAADVGKAGAEREFRGLGDCLVKIYKSDGIKGLYQGFNVSVQGIIIYRAAYFGIYDTAKGMLPDPKNTHIVISWMIAQTVTAVAGLTSYPFDTVRRRMMMQSGRKGTDIMYTGTLDCWRKIARDEGGKAFFKGAWSNVLRGMGGAFVLVLYDEIKKYT [SLC25A5]
-0.12

###

Tested on: HeLa Kyoto;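 also: synchronized HeLa Kyoto cells (double thymidine block for G1/S, nocodazole release for mitosis), protein amounts in NP-40 versus SDS lysates quantified by mass spectrometry, three biological replicates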
Experiment: solubility change mitosis vs G1/S (difference of NP-40 vs SDS log2 ratios) (log2 ratio difference); higher = more soluble in mitosis
Property: solubility change mitosis (log2)

MAAASGSVLQRCIVSPAGRHSASLIFLHGSGDSGQGLRMWIKQVLNQDLTFQHIKIIYPTAPPRSYTPMKGGISNVWFDRFKITNDCPEHLESIDVMCQVLTDLIDEEVKSGIKKNRILIGGFSMGGCMAIHLAYRNHQDVAGVFALSSFLNKASAVYQALQKSNGVLPELFQCHGTADELVLHSWAEETNSMLKSLGVTTKFHSFPNVYHELSKTELDILKLWILTKLPGEMEKQK [LYPLAL1] : -0.0182

Data request, read-out solubility change mitosis (log2), for MSSEEGKLFVGGLNFNTDEQALEDHFSSFGPISEVVVVKDRETQRSRGFGFITFTNPEHASVAMRAMNGESLDGRQIRVDHAGKSARGTRGGGFGAHGRGRSYSRGGGDQGYGSGRYYDSRPGGYGYGYGRSRDYNGRNQGGYDRYSGGNYRDNYDN [RBM3]
0.436

Also MPVKKKRKSPGVAAAVAEDGGLKKCKISSYCRSQPPARLISGEEHFSSKKCLAWFYEYAGPDEVVGPEGMEKFCEDIGVEPENIIMLVLAWKLEAESMGFFTKEEWLKGMTSLQCDCTEKLQNKFDFLRSQLNDISSFKNIYRYAFDFARDKDQRSLDIDTAKSMLALLLGRTWPLFSVFYQYLEQSKYRVMNKDQWYNVLEFSRTVHADLSNYDEDGAWPVLLDEFVEWQKVRQTS [DCUN1D5] , if possible.
-0.0762

// next record MAWRGWAQRGWGCGQAWGASVGGRSCEELTAVLTPPQLLGRRFNFFIQQKCGFRKAPRKVEPRRSDPGTSGEAYKRSALIPPVEETVFYPSPYPIRSLIKPLFFTVGFTGCAFGSAAIWQYESLKSRVQSYFDGIKADWLDSIRPQKEGDFRKEINKWWNNLSDGQRTVTGIIAANVLVFCLWRVPSLQRTMIRYFTSNPASKVLCSPMLLSTFSHFSLFHMAANMYVLWSFSSSIVNILGQEQFMAVYLSAGVISNFVSYVGKVATGRYGPSLGASGAIMTVLAAVCTKIPEGRLAIIFLPMFTFTAGNALKAIIAMDTAGMILGWKFFDHAAHLGGALFGIWYVTYGHELIWKNREPLVKIWHEIRTNGPKKGGGSK [PARL]
-0.267

Moving on to MLPPMALPSVSWMLLSCLMLLSQVQGEEPQRELPSARIRCPKGSKAYGSHCYALFLSPKSWTDADLACQKRPSGNLVSVLSGAEGSFVSSLVKSIGNSYSYVWIGLHDPTQGTEPNGEGWEWSSSDVMNYFAWERNPSTISSPGHCASLSRSTAFLRWKDYNCNVRLPYVCKFTD [PAP1]
-0.21

Next sequence: MAPLGGAPRLVLLFSGKRKSGKDFVTEALQSRLGADVCAVLRLSGPLKEQYAQEHGLNFQRLLDTSTYKEAFRKDMIRWGEEKRQADPGFFCRKIVEGISQPIWLVSDTRRVSDIQWFREAYGAVTQTVRVVALEQSRQQRGWVFTPGVDDAESECGLDNFGDFDWVIENHGVEQRLEEQLENLIEFIRSRL [PMVK]
-0.0243

# iterate: MGDAGSERSKAPSLPPRCPCGFWGSSKTMNLCSKCFADFQKKQPDDDSAPSTSNSQSDLFSEETTSDNNNTSITTPTLSPSQQPLPTELNVTSPSKEECGPCTDTAHVSLITPTKRSCGTDSQSENEASPVKRPRLLENTERSEETSRSKQKSRRRCFQCQTKLELVQQELGSCRCGYVFCMLHRLPEQHDCTFDHMGRGREEAIMKMVKLDRKVGRSCQRIGEGCS [ZFAND3]
-0.0341

Likewise for MGRLVAVGLLGIALALLGERLLALRNRLKASREVESVDLPHCHLIKGIEAGSEDIDILPNGLAFFSVGLKFPGLHSFAPDKPGGILMMDLKEEKPRARELRISRGFDLASFNPHGISTFIDNDDTVYLFVVNHPEFKNTVEIFKFEEAENSLLHLKTVKHELLPSVNDITAVGPAHFYATNDHYFSDPFLKYLETYLNLHWANVVYYSPNEVKVVAEGFDSANGINISPDDKYIYVADILAHEIHVLEKHTNMNLTQLKVLELDTLVDNLSIDPSSGDIWVGCHPNGQKLFVYDPNNPPSSEVLRIQNILSEKPTVTTVYANNGSVLQGSSVASVYDGKLLIGTLYHRALYCEL [PON2] ?
-0.101

Also need MAQEEEDVRDYNLTEEQKAIKAKYPPVNRKYEYLDHTADVQLHAWGDTLEEAFEQCAMAMFGYMTDTGTVEPLQTVEVETQGDDLQSLLFHFLDEWLYKFSADEFFIPREVKVLSIDQRNFKLRSIGWGEEFSLSKHPQGTEVKAITYSAMQVYNEENPEVFVIIDI [ZBTB8OS] , thanks.
0.0908

// repeat for MESYDIIANQPVVIDNGSGVIKAGFAGDQIPKYCFPNYVGRPKHMRVMAGALEGDLFIGPKAEEHRGLLTIRYPMEHGVVRDWNDMERIWQYVYSKDQLQTFSEEHPVLLTEAPLNPSKNREKAAEVFFETFNVPALFISMQAVLSLYATGRTTGVVLDSGDGVTHAVPIYEGFAMPHSIMRVDIAGRDVSRYLRLLLRKEGVDFHTSAEFEVVRTIKERACYLSINPQKDEALETEKVQYTLPDGSTLDVGPARFRAPELLFQPDLVGDESEGLHEVVAFAIHKSDMDLRRTLFANIVLSGGSTLFKGFGDRLLSEVKKLAPKDIKIKISAPQERLYSTWIGGSILASLDTFKKMWVSKKEYEEDGSRAIHRKTF [ACTR1B] and report
-0.178

Another sequence: MSESLVVCDVAEDLVEKLRKFRFRKETNNAAIIMKIDKDKRLVVLDEELEGISPDELKDELPERQPRFIVYSYKYQHDDGRVSYPLCFIFSSPVGCKPEQQMMYAGSKNKLVQTAELTKVFEIRNTEDLTEEWLREKLGFFH [GMFB]
0.123
